Biological target: Peroxisome proliferator-activated receptor alpha (Mus musculus)
Sequence (whole entry): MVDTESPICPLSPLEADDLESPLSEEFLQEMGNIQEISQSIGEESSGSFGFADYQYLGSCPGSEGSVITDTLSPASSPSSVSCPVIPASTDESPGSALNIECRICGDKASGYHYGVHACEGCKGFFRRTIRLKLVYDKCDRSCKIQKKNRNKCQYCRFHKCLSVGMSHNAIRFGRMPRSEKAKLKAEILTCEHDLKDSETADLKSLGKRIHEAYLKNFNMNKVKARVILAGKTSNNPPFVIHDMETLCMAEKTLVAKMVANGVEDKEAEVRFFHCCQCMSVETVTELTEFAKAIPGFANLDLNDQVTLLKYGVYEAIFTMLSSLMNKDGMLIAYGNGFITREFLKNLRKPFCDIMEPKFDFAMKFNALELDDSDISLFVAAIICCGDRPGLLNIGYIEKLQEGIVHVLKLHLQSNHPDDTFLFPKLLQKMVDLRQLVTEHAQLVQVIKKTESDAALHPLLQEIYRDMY
Assay: In vivo agonist activity at PPARalpha in high fat diet-induced nonalcoholic steatohepatitis C57BL/6J mouse model assessed as increase in Cyp4a3 mRNA expression in liver administered at 3 mg/kg, po and measured after 24 hrs by quantitative real time PCR analysis
Format: functional, organism-based
The source made the active and inactive calls. No cut-off for these calls is given here.
Classes used: Y = active, N = inactive

>>> print(df.to_string())
                                   compound                                    system  label
0  CC(C)(Sc1ccc(CCN(CCCCC2CCCCC2)C(=O)NC2CCCCC2)cc1)C(=O)O [GW7647]  Peroxisome proliferator-activated receptor alpha (Mus musculus)      N
1  Cc1ccc(Cn2nc(CCCc3ccc(OC(C)(C)C(=O)O)cc3)n(Cc3ccc(C)cc3)c2=O)cc1  Peroxisome proliferator-activated receptor alpha (Mus musculus)      N
2  COc1ccc(Cn2c(CCCc3ccc(OC(C)(C)C(=O)O)cc3)nn(Cc3ccc(C)cc3)c2=O)cc1  Peroxisome proliferator-activated receptor alpha (Mus musculus)      Y
3  COc1cccc(Cn2c(CCCc3ccc(OC(C)(C)C(=O)O)cc3)nn(Cc3ccc(C)cc3)c2=O)c1  Peroxisome proliferator-activated receptor alpha (Mus musculus)      Y
4  Cc1ccc(Cn2nc(CCCc3ccc(OC(C)(C)C(=O)O)cc3)n(Cc3ccc(F)cc3)c2=O)cc1  Peroxisome proliferator-activated receptor alpha (Mus musculus)      Y
5  Cc1ccc(Cn2nc(CCCc3ccc(OC(C)(C)C(=O)O)cc3)n(Cc3ccccc3)c2=O)cc1  Peroxisome proliferator-activated receptor alpha (Mus musculus)      Y
6  COc1cc(Cn2c(CCCc3ccc(OC(C)(C)C(=O)O)cc3)nn(Cc3ccc(C)cc3)c2=O)cc(OC)c1OC  Peroxisome proliferator-activated receptor alpha (Mus musculus)      Y
7  Cc1ccc(Cn2nc(CCCc3ccc(OC(C)(C)C(=O)O)cc3)n(Cc3ccc(Cl)cc3)c2=O)cc1  Peroxisome proliferator-activated receptor alpha (Mus musculus)      Y
8  COc1ccc(Cn2c(CCCc3ccc(OC(C)(C)C(=O)O)cc3)nn(Cc3ccc(C(C)(C)C)cc3)c2=O)cc1  Peroxisome proliferator-activated receptor alpha (Mus musculus)      Y
9  C=Cc1ccc(Cn2nc(CCCc3ccc(OC(C)(C)C(=O)O)cc3)n(Cc3ccc(C)cc3)c2=O)cc1  Peroxisome proliferator-activated receptor alpha (Mus musculus)      Y
